The origin of these recorded values is paper PMC6271266.

# assay_explanation: Hydrolysis in 80% human plasma
# Format: in vitro ADME
# conditions: human, 80% human plasma, pH 7.4; prodrug disappearance, from pseudo-first-order rate constant; read-out: t1/2 (80% Human Plasma) (converted)
measured_metric: half-life (h)
All answers are understood in h, so give the number only.

Cc1nc(COC(=O)C(C)(C)C)c(C)nc1COC(=O)C(C)(C)C yielded half-life of 3.4

CCCCCCCCCCCC(=O)OCc1nc(C)c(COC(=O)CCCCCCCCCCC)nc1C yielded half-life of 7.9

CCCCCCCCCC(=O)OCc1nc(C)c(CO)nc1C yielded half-life of 2.3

CCCCCCCCCC(=O)OCc1nc(C)c(COC(=O)CCCCCCCCC)nc1C yielded half-life of 4.2

CCCCCCCCCCCCCCCC(=O)OCc1nc(C)c(CO)nc1C yielded half-life of 3.3

Cc1nc(COC(=O)C(C)(C)C)c(C)nc1CO yielded half-life of 2.6

CCCCCCCCCCCC(=O)OCc1nc(C)c(CO)nc1C yielded half-life of 2.6

###

What solubility at 24 h was measured for each of the following?
# assay_explanation: Aqueous solubility in 50 mM phosphate buffer pH 7.4
# Assay type: physicochemical
# conditions: aqueous buffer, thermodynamic from solid; 50 mM phosphate buffer pH 7.4, 25 °C, 24 h; n = 3; mean ± SD

Cc1nc(CO)c(C)nc1CO [Liguzinediol, 2,5-Dihydroxymethyl-3,6-dimethylpyrazine] yielded solubility at 24 h of 224000 µg/mL

CCCCCCCCCC(=O)OCc1nc(C)c(CO)nc1C [Compound M10] yielded solubility at 24 h of 8.89 µg/mL

CCCCCCCCCCCC(=O)OCc1nc(C)c(CO)nc1C [Compound M12] yielded solubility at 24 h of 2.23 µg/mL

###

What Capacity Factor was measured for each of the following?
# assay_explanation: Capacity factor (k') by HPLC (lipophilic index)
# Type: physicochemical
# conditions: n = 3, mean ± SD
Provide a numeric answer; units are not to be included.

CCCCCCCCCC(=O)OCc1nc(C)c(CO)nc1C yielded Capacity Factor of 0.400

CCCCCCCCCCCCCCCC(=O)OCc1nc(C)c(COC(=O)CCCCCCCCCCCCCCC)nc1C yielded Capacity Factor of 3.911

Cc1nc(CO)c(C)nc1CO [Liguzinediol, 2,5-Dihydroxymethyl-3,6-dimethylpyrazine] yielded Capacity Factor of 0.100

Cc1nc(COC(=O)C(C)(C)C)c(C)nc1COC(=O)C(C)(C)C yielded Capacity Factor of 0.364

CCCCCCCCCCCC(=O)OCc1nc(C)c(COC(=O)CCCCCCCCCCC)nc1C yielded Capacity Factor of 1.640
